Record form. Attribute: IC50. Fill in for each entry.
Target: opiate receptor
Assay: opiate receptor assay of Pert et al.
Format: binding
Conditions: +NaCl; read-out: Opiate Receptor Inhibition (IC50, nM) +NaCl
Excerpt: (Raven Press, New York, N.Y.), at pp. 33-43. […] Int. Pharmacodyn.
Answers are plain numbers, in nM.

Take a look at these entries with their results.
CCC(C)N1CCC23c4c5ccc(O)c4OC2C(O)C=CC3C1C5 [N-sec-butyl normorphine (R), reference compound] | 110
CC(C1CC1)N1CCC23c4c5ccc(O)c4OC2C(O)C=CC3C1C5 (mixture of isomers) [N-α-methylcyclopropylmethyl-normorphine (mixture)] | 6

Parameter requested: IC50. Apply to each item below.
1. CCC(C)N1CCC23c4c5ccc(O)c4OC2C(O)C=CC3C1C5 [N-sec-butyl normorphine (S), reference compound]
2. C=CCN1CC[C@]23c4c5ccc(O)c4O[C@H]2[C@@H](O)C=C[C@H]3[C@H]1C5 [nalorphine, reference compound]

Marked response:
62
6

----------
target: δ receptor (Homo sapiens, UniProt P41143)
Sequence (P41143 whole entry): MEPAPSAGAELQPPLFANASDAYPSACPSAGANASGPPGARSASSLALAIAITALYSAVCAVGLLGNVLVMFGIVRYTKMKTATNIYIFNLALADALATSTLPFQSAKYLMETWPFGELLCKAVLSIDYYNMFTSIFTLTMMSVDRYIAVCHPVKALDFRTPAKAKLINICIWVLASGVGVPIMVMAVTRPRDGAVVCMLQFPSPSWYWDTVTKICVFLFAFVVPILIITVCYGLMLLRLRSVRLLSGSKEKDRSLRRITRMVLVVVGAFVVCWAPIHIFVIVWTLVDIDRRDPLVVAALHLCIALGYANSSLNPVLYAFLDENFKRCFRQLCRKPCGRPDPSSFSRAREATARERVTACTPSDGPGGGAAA
METRIC: pKi
One number for each entry, as −log10 of the molar value.

Exam item: Provide only the value of recorded pKi for C[C@H](C1CC1)N1CC[C@]23c4c5ccc(O)c4O[C@H]2[C@@H](O)C=C[C@H]3[C@H]1C5 [compound 1, N-[(1R)-1-cyclopropylethyl]-normorphine]
Marked response: 8.40

----------
molecular target: μ receptor (Homo sapiens); assay: biochemical; format: biochemical
Sequence (P35372 whole entry): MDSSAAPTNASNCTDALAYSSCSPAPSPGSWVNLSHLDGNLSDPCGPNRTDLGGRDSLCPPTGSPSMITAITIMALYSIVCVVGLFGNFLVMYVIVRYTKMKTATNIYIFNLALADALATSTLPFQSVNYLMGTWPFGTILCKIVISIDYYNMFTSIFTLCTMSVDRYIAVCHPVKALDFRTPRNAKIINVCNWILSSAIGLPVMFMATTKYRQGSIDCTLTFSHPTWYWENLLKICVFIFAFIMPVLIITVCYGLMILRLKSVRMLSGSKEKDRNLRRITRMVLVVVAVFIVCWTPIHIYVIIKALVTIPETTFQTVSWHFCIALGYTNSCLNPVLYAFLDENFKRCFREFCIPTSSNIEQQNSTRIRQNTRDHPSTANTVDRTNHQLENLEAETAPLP
METRIC: EC50

Exam item: Provide only the value of recorded EC50 for C[C@H](C1CC1)N1CC[C@]23c4c5ccc(O)c4O[C@H]2[C@@H](O)C=C[C@H]3[C@H]1C5 [compound 1, N-[(1R)-1-cyclopropylethyl]-normorphine]
Marked response: > 10 µM

----------
Record form. Attribute: EC50. Fill in for each entry.
molecular target: κ receptor (Homo sapiens, UniProt P41145); construct: expressed in transfected cells; host or cells: CHO cells; experiment: biochemical; format: biochemical
Sequence (P41145 whole entry): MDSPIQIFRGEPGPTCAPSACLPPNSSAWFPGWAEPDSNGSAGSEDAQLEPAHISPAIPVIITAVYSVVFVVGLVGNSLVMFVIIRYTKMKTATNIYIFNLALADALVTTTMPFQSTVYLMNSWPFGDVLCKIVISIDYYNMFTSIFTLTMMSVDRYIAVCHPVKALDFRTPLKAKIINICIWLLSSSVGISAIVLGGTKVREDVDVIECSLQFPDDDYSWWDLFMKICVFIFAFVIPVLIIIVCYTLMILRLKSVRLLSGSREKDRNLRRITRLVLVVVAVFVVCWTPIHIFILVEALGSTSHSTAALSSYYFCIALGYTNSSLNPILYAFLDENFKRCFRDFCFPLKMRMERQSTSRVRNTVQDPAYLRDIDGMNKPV
Answers are plain numbers, in nM.

C[C@H]1[C@H]2Cc3ccc(O)cc3[C@]1(C)CCN2CC1CC1 [Cyclazocine, reference compound] | 0.8

Now turn to the next compound.
Exam item: Look up and report measured EC50 (κ receptor (Homo sapiens, UniProt P41145)) for the following compound: C[C@H](C1CC1)N1CC[C@]23c4c5ccc(O)c4O[C@H]2[C@@H](O)C=C[C@H]3[C@H]1C5 [compound 1, N-[(1R)-1-cyclopropylethyl]-normorphine]
Marked response: 15.2

----------
Record form. Attribute: IC50. Fill in for each entry.
Biological target: opiate receptor
Experiment: opiate receptor assay of Pert et al.
Format: binding
Conditions: −NaCl; read-out: Opiate Receptor Inhibition (IC50, nM) −NaCl
Source text: (Raven Press, New York, N.Y.), at pp. 33-43. […] Int. Pharmacodyn.
Numbers only, in nM.

C=CCN1CC[C@]23c4c5ccc(O)c4O[C@H]2[C@@H](O)C=C[C@H]3[C@H]1C5 [nalorphine, reference compound] | 2
CCC(C)N1CCC23c4c5ccc(O)c4OC2C(O)C=CC3C1C5 [N-sec-butyl normorphine (S), reference compound] | 28

Parameter requested: IC50. Apply to each item below.
1. C[C@H](C1CC1)N1CC[C@]23c4c5ccc(O)c4O[C@H]2[C@@H](O)C=C[C@H]3[C@H]1C5 [compound 1, N-[(1R)-1-cyclopropylethyl]-normorphine]
2. CC(C1CC1)N1CCC23c4c5ccc(O)c4OC2C(O)C=CC3C1C5 (single isomer, unassigned; diastereomer b) [N-α-methylcyclopropylmethyl-normorphine (S isomer)]
3. CCC(C)N1CCC23c4c5ccc(O)c4OC2C(O)C=CC3C1C5 [N-sec-butyl normorphine (R), reference compound]

Marked response:
1. 7
2. 0.23
3. 60

Exam item: Provide only the value of recorded IC50 for CC(C1CC1)N1CCC23c4c5ccc(O)c4OC2C(O)C=CC3C1C5 (mixture of isomers) [N-α-methylcyclopropylmethyl-normorphine (mixture)]
Marked response: 3

----------
molecular target: UniProt:P41145
METRIC: Ki (pM)
Give bare numbers, in pM.

Exam item: Provide only the value of recorded Ki for C[C@H](C1CC1)N1CC[C@]23c4c5ccc(O)c4O[C@H]2[C@@H](O)C=C[C@H]3[C@H]1C5 [compound 1, N-[(1R)-1-cyclopropylethyl]-normorphine]
Marked response: 430
